Reported Bacterial growth relative to medium, L. monocytogenes, replicate 3 values follow for various sequences
Test system: Listeria monocytogenes DSM 20600
run description: Antibacterial growth assay (OD600)
study conditions: OD600, medium = 100, MH II broth, 37 °C, peptide 200 µM mixed 50 µL + 50 µL with bacteria; Figure 7: 48 h; replicate column 3
// print number alone

SLLGLLDVVKSKIGQTG [LS-AMP-A14] = 49.785
SLLGLLDVVKNKVGQI [LS-AMP-A5] = 61.98
GSLLGLLDVVKSKVGQTGLL [LS-AMP-A19] = 60.4017
SLLGLLDVVKNTVGQTGLL [LS-AMP-A8] = 69.2971
SLLGLLDVVKSKIGQT [LS-AMP-A15] = 85.5096
SLLGLLDVVKNKVGQIG [LS-AMP-A4] = 81.7792
LLDVVKSKIGQTGLL [LS-AMP-A16] = 20.8033
DVVKSKVGQT [LS-AMP-A20] = 40.8896

Input SLLGLLDVVKSKIGQTGLL [LS-AMP-A13] . Output Bacterial growth relative to medium, L. monocytogenes, replicate 3: 121.808

Input SLLGLLDVVKSKVGQTGLL [LS-AMP-A18] . Output Bacterial growth relative to medium, L. monocytogenes, replicate 3: 13.7733

Input SLLGLLDVVKNTVGQTG [LS-AMP-A9] . Output Bacterial growth relative to medium, L. monocytogenes, replicate 3: 66.1408

Input SLLGLLDVVKNKVGQIGLL [LS-AMP-A3] . Output Bacterial growth relative to medium, L. monocytogenes, replicate 3: 68.2929

Input SLLGLLDVVKNTVGQT [LS-AMP-A10] . Output Bacterial growth relative to medium, L. monocytogenes, replicate 3: 28.6946
